Source: PubChem BioAssay (NCI)

tested on: KM20L2 colon; assay: NCI tumour cell line growth inhibition, 48 h
compounds and their reported TGI

Worked examples, 2 compounds total:
COMPOUND: O=C1c2ccccc2C(=O)c2cc3c(cc21)CS(=O)C3
TGI: > 100 µM
//
COMPOUND: NC(=O)c1ccc2c(c1)-c1nc-2nc2[n-]c(nc3nc(nc4[n-]c(n1)c1ccc(C(N)=O)cc41)-c1ccc(C(N)=O)cc1-3)c1ccc(C(N)=O)cc21.[Co+2]
TGI: > 50 µM

Q: For KM20L2 colon, give TGI of the listed compound: CC1(C)CCC(Sc2ccccc2)O1 (stereo not given)
Ans: > 100 µM

Q: Please respond with reported TGI (system KM20L2 colon) for Cc1cc2ncn(-c3nc4ccccc4nc3C(C#N)S(C)(=O)=O)c2cc1C (stereo not given) .
Ans: > 100 µM

Q: Report the value of TGI obtained on KM20L2 colon for `FC(F)(F)c1ccc2c(c1)N(CCCNCCN1CCOCC1)c1ccccc1S2` .
Ans: 17 µM
